Form field: inhibition at 100 µM (one value per entry).
Assayed Target: E6 WT/E6AP (Human papillomavirus type 16, UniProt P03126)
Sequence (P03126 8-158): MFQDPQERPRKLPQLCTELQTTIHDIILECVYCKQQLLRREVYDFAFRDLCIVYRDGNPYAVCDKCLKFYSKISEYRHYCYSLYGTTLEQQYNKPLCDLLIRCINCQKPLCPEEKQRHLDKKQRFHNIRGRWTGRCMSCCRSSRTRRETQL
Assay Summary: biochemical
Assay type: binding
Conditions: 100 μM compound, WT 16E6
Attribute Measured: inhibition at 100 µM (%)

Compound | Readout Unit | Quantitative Readout
C=CC(=O)N1CCN(c2nc(CCc3ccccc3OC)nc3sc4c(c23)CCCC4)CC1 [EIN-145] | % | 51
CCCCc1nc(N2CCN(C(=O)CCl)CC2)c2c3c(sc2n1)CCCC3 [EIN-126] | % | 63
C=CC(=O)N1CCN(c2nc(-c3ccccc3)nc3sc4c(c23)CCCC4)CC1 [EIN-133] | % | 41
C=CC(=O)N1CCN(c2nc(CCc3cccc(F)c3)nc3sc4c(c23)CCCC4)CC1 [EIN-137] | % | 56
Cc1ccccc1C1c2ccsc2CCN1CC(=O)N1CCN(C(=O)CCl)C(C)C1 (stereo not drawn) [EIN-118] | % | 98
O=C(CCl)N1CCN(c2nc(CCc3ccccc3)nc3sc4c(c23)CCCC4)CC1 [EIN-125] | % | 102
C=CC(=O)N1CCN(c2nc(CCc3ccc(F)cc3)nc3sc4c(c23)CCCC4)CC1 [EIN-136] | % | 69
C=CC(=O)N1CCN(c2nc(N(C)Cc3ccccc3F)nc3sc4c(c23)CCCC4)CC1 [EIN-140] | % | 17
C=CC(=O)N1CCN(c2nc(N(C)Cc3ccc(F)cc3)nc3sc4c(c23)CCCC4)CC1 [EIN-142] | % | 28
C=CC(=O)N1CCN(c2nc(Cc3ccccc3)nc3sc4c(c23)CCCC4)CC1 [EIN-135] | % | 52
C=CC(=O)N1CCN(c2nc(N(C)Cc3ccccc3)nc3sc4c(c23)CCCC4)CC1 [EIN-139] | % | 21
Cc1nc(N2CCN(C(=O)CCl)CC2)c2c3c(sc2n1)CCCC3 [EIN-123] | % | 114
O=C(CCl)N1CCN(c2nc(Cc3ccccc3)nc3sc4c(c23)CCCC4)CC1 [EIN-127] | % | 106
CCc1nc(N2CCN(C(=O)CCl)CC2)c2c3c(sc2n1)CCCC3 [EIN-131] | % | 65
C=CC(=O)N1CCN(c2nc(Cc3ccc(F)cc3)nc3sc4c(c23)CCCC4)CC1 [EIN-146] | % | 30
C=CC(=O)N1CCN(c2nc(CCc3ccccc3)nc3sc4c(c23)CCCC4)CC1 [EIN-132] | % | 61
C=CC(=O)N1CCN(c2nc(CCc3cccc(OC)c3)nc3sc4c(c23)CCCC4)CC1 [EIN-143] | % | 78
Cc1ccccc1C1c2ccsc2CCN1CC(=O)N1CCCN(C(=O)CCl)CC1 (stereo not drawn) [EIN-116] | % | 74
